What TGI was measured for each of the following?
- Test system: EKVX NSCLC
- Experiment: NCI tumour cell line growth inhibition, 48 h

Some entries whose results are on file:
[
  {
    "Molecule": "N#Cc1cccc(Nc2ncc(-c3ccccc3)o2)c1",
    "Readout name": "TGI",
    "Observed": "> 25 µM"
  },
  {
    "Molecule": "O=S(=O)(O)c1ccc2cc3nn(-c4ccc(/C=C/c5ccc(-n6nc7cc8ccc(S(=O)(=O)O)cc8cc7n6)cc5S(=O)(=O)O)c(S(=O)(=O)O)c4)nc3cc2c1",
    "Readout name": "TGI",
    "Observed": "> 100 µM"
  },
  {
    "Molecule": "CC1(C)[C@H](O)[C@H](F)C[C@@]2(C)Oc3ccc(C(=O)Nc4ccc5c(c4)NC(=O)C54CCN(CCCCC#N)CC4)cc3C[C@H]12",
    "Readout name": "TGI",
    "Observed": "22.1 µM"
  },
  {
    "Molecule": "O=c1[nH]c(=O)n(C2C(CO)OC(CO)C2O)cc1F (centres undefined)",
    "Readout name": "TGI",
    "Observed": "> 100 µM"
  },
  {
    "Molecule": "Oc1cccnc1/C=N/OCc1ccccc1",
    "Readout name": "TGI",
    "Observed": "> 100 µM"
  }
]

For each of the molecules below, note its TGI.
1. FC(F)(F)c1cccnc1Sc1nc2ccccc2s1
2. S=C(NCc1ccc2c(c1)OCO2)N1CCN(c2ncnc3c2oc2ccccc23)CC1

1: > 100 µM; 2: > 100 µM

For each of the molecules below, note its TGI.
1. O=[N+]([O-])/C=C/c1cn(CCCCCCCCCCCCn2cc(/C=C/[N+](=O)[O-])c3ccccc32)c2ccccc12
2. COc1ccc(-c2[nH]c3ccccc3c2/C=C(\C#N)S(=O)(=O)c2ccccc2)cc1
3. c1ccc(COC2C3COC(O3)C(OCc3ccccc3)C2OCc2ccccc2)cc1 (centres undefined)

1. > 100 µM
2. > 100 µM
3. > 100 µM

For each of the molecules below, note its TGI.
1. CC1CC(N2CCOCC2)=Nc2ccccc2N1Cc1ccccc1 (centres undefined)
2. BrCc1ccc(CBr)c2c1-c1c(CBr)ccc3ccc(CBr)c-2c13
3. CC(C)=CC(=O)OC1C2C(C)=CC(O)C(O)C2(C)C2C3(O)OCC24C(CC(=O)OC14)C(C)C3O (centres undefined)
4. N#CCNC(=O)c1ccc(-c2ccnc(Nc3ccc(N4CCOCC4)cc3)n2)cc1

["> 100 µM", "> 100 µM", "0.642 µM", "> 10 µM"]

* * *

What TGI was measured for each of the following?
- System: SF-539 CNS
- Experiment: NCI tumour cell line growth inhibition, 48 h

[
  {
    "Molecule": "CN1C(=NCCO)NS(=O)(=O)c2ccccc21",
    "TGI": "> 100 µM"
  },
  {
    "Molecule": "Cc1nc(N(C(C)C)C(C)C)c(C(C)C)o1",
    "TGI": "> 100 µM"
  },
  {
    "Molecule": "O=C(c1cc(Cc2n[nH]c(=O)c3ccccc23)ccc1F)N1CCN(C(=O)C2CC2)CC1",
    "TGI": "> 100 µM"
  },
  {
    "Molecule": "CCCCN(C)C(=O)C1=C(C)NC(C)=C(C(=O)N(C)CCCC)C1",
    "TGI": "> 100 µM"
  },
  {
    "Molecule": "Cc1cccc(CNc2ncnc3[nH]ncc23)c1",
    "TGI": "> 100 µM"
  },
  {
    "Molecule": "OC1COC(OCc2ccccc2)C(O)C1O (stereo not drawn)",
    "TGI": "> 100 µM"
  },
  {
    "Molecule": "[Cl][Cu][Cl]",
    "TGI": "> 10 µM"
  },
  {
    "Molecule": "CC(=O)N(CC(=O)C(=O)NNc1ccoc1)c1ccc(Cl)cc1",
    "TGI": "> 100 µM"
  },
  {
    "Molecule": "CN(C)C(F)=PC(F)(F)F (stereo not drawn)",
    "TGI": "> 100 µM"
  },
  {
    "Molecule": "COc1ccc(/C=C/c2cc(OC)c(OCc3ccccc3)c(OC)c2)cc1",
    "TGI": "> 100 µM"
  }
]

For each of the molecules below, note its TGI.
1. CCOC(=O)/C=C\C(C#N)(C#N)N=Cc1ccsc1
2. Nc1nc(C(=O)O)c(N=Nc2ccccc2)c(=O)[nH]1
3. O=C(c1ccco1)c1c(C(F)(F)F)n([O-])c2cc(F)c(F)cc2[n+]1=O
4. C[C@H]1CN(C2COC2)CCN1c1ccc(Nc2cc(-c3ccnc(N4CCn5c(cc6c5CC(C)(C)C6)C4=O)c3CO)cn(C)c2=O)nc1
5. O=C1/C(=C/c2ccccc2O)N=C(c2ccccc2)N1c1cc(C(F)(F)F)ccc1Cl
6. CC(N)CC(=O)O (stereo not drawn)

1. 12.9 µM
2. > 100 µM
3. 0.679 µM
4. 66.9 µM
5. > 100 µM
6. > 5000 µM

For each of the molecules below, note its TGI.
1. CC1CCN(CCOc2ccc(CNc3ccc4nc(CCC5CCCCC5)[nH]c4c3)cc2)CC1
2. CN(C)c1nc(N)c(C#N)c(C#N)c1C#N

1: 3.01 µM; 2: > 10 µM

* * *

What TGI was measured for each of the following?
- Tested on: IGROV1 ovarian
- Experiment: NCI tumour cell line growth inhibition, 48 h

[
  {
    "Compound": "CCCCN(C)C(=O)C1=C(C)NC(C)=C(C(=O)N(C)CCCC)C1",
    "TGI": "> 100 µM"
  }
]

For each of the compounds below, note its TGI.
1. FC(F)(F)c1cccnc1Sc1nc2ccccc2s1
2. O=c1cc(CNC2CC3CCC2C3)[nH]c(=O)[nH]1 (stereo not drawn)
3. Oc1cccnc1/C=N/OCc1ccccc1
4. Cc1ccc(/C=C2\Cc3cc(C)c(C)cc3C2=O)c(C(=O)O)c1
5. COc1ccc(/C=C/c2cc(OC)c(OCc3ccccc3)c(OC)c2)cc1
6. CCN1C[C@]2(C)CC[C@H](OC)C34C5C[C@@H]6[C@@H](OC)C[C@@](OC)(C5[C@H]6OCc5ccccc5)C(C13)[C@H](OC(C)=O)[C@@H]42 (stereo partly drawn)
7. CC(C)=CC(=O)OC1C2C(C)=CC(O)C(O)C2(C)C2C3(O)OCC24C(CC(=O)OC14)C(C)C3O (stereo not drawn)

["> 100 µM", "> 100 µM", "> 100 µM", "> 100 µM", "> 100 µM", "> 100 µM", "0.706 µM"]

* * *

What TGI was measured for each of the following?
- Test system: XF 498 CNS
- Experiment: NCI tumour cell line growth inhibition, 48 h
Give bare numbers, in µM.

[
  {
    "Chemical structure": "C/C(=N\\NC(=S)N1CCN(c2ccccn2)CC1)c1ncccn1",
    "Observed": 13.8
  }
]

Now, please, on to the next compound.
Tell me the measured TGI of `CSC(=N)N1N=C2/C(=C/c3ccccc3)CCC[C@H]2[C@H]1c1ccccc1` , please. 23.5

* * *

- Test system: HOP-62 NSCLC
- Experiment: NCI tumour cell line growth inhibition, 48 h
Readout name: TGI

[
  {
    "Compound": "O=c1cc(CNC2CC3CCC2C3)[nH]c(=O)[nH]1 (stereo unspecified)",
    "TGI": "> 100 µM"
  },
  {
    "Compound": "C=C(C)CCC1CC=[N+]([O-])OC1C(C)(C)C (stereo unspecified)",
    "TGI": "> 100 µM"
  }
]

For each of the compounds below, note its TGI.
1. O=S(=O)(O)c1ccc2cc3nn(-c4ccc(/C=C/c5ccc(-n6nc7cc8ccc(S(=O)(=O)O)cc8cc7n6)cc5S(=O)(=O)O)c(S(=O)(=O)O)c4)nc3cc2c1
2. COc1ccc(C2CC(c3ccc(N(C)C)cc3)=NN2c2ccc(S(N)(=O)=O)cc2)cc1 (stereo unspecified)
3. Nc1c(Cl)cc(-c2nc3ccccc3s2)cc1Cl
4. NCc1ccc(-c2nc(-c3ccc(Cl)c(O)c3)c(-c3ccncc3)[nH]2)cc1
5. CSc1ccc2c(cc1=O)C(NC(=O)c1ccc(C#N)cc1)CCc1cc(O)c(O)c(O)c1-2 (stereo unspecified)
6. COc1ccc(-n2c(C)nc3ccc(NC4OC(CO)C(O)C(O)C4O)cc3c2=O)cc1 (stereo unspecified)
7. NC(=O)CC(N)c1nn[nH]n1 (stereo unspecified)
8. OC1COC(OCc2ccccc2)C(O)C1O (stereo unspecified)

1: > 100 µM; 2: > 100 µM; 3: > 100 µM; 4: > 25 µM; 5: > 100 µM; 6: > 100 µM; 7: > 100 µM; 8: > 100 µM

Tell me the measured TGI of `CC(=O)N(O)c1ccc(/C=C/c2ccccc2)cc1` , please. > 35.7 µM

Recorded values, source PubChem BioAssay (NCI).
